Test: NCI Yeast Anticancer Drug Screen. Data for the mlh1 rad18 strain (AID 175)
Conditions: S. cerevisiae mlh1 rad18 strain growth inhibition; at 50.0 µM
Compounds without any hit were thinned out: in the full panel of roughly 79,000, 15% have a hit. Activity calls are given as the source filed them. Cut-off read from the data, not from the text of the source: active = growth inhibition above about 70%; inactive = the rest. Where a SMILES comes first, the peptide text is derived from it. The star is where a group is joined. Cbz = O=C(OCc1ccccc1)*
Respond using exactly one of the listed classes: active, inactive

Outcome? O=C1CSC(c2c[nH]c3ccccc23)N1c1cccc(Cl)c1 (stereo unspecified) active

In this assay, the call recorded for CCc1c(O)sc2c(c1=O)C(=NCC(C)C)CC(C)(C)N2 was what? inactive

Per the records of this test, what outcome belongs to COC(=O)CCC(=O)N1C/C(=C\c2ccccc2)C(=O)/C(=C/c2ccccc2)C1 ? active

Dear all, I need the recorded test outcome for CC/C=C(\C)CC(C)O (stereo unspecified) , thank you. inactive

What did this assay record as the result for Cc1ccc(C2(O)c3ccccc3-c3ccccc32)cc1 ? active

Look up the recorded call for Cc1sc(N=Nc2c(O)[nH]c3ccccc23)nc1-c1ccccc1 in this test. inactive

Assay result, entry CCOC(=O)c1c(N2CCCC2)nsc1Nc1ccc(F)cc1 — outcome? active

Returns: the outcome recorded for CCOC(=O)C(=O)NNc1ccccc1 in this assay. active

Which outcome did this test record for the compound C/C(=N\NC(=S)N(C)C)c1cccnn1 ? active

Any idea what this test logged for O=C(c1ccccc1)c1ccc(Br)cc1O ? inactive

Entry CC(C)N(C(=O)C12C3C4C5(C#N)C3C1(C#N)C5C42I)C(C)C (stereo unspecified) : call = ? inactive

How was Nc1ccccc1C(=O)NCCc1c[nH]c2ccccc12 classified in this test? inactive

For CN=S(=O)(OCCCCCCCCCOS(=O)(=NC)c1ccc(C)cc1)c1ccc(C)cc1 (stereo unspecified) , which call appears in the assay record? inactive

Recorded test outcome, item COc1cccc(/C=C(\NC(=O)c2ccccc2)c2nc3ccccc3s2)c1 active

So what was the verdict on O=C(/C(Cl)=N/O)c1ccccc1 in this test? inactive

What outcome does the record of this test show for CCOC(=O)c1sc2c(c1O)c(=O)n(-c1ccccc1)c(=S)n2-c1ccccc1 ? active

Name the outcome recorded for COc1ccc(/C=N/NS(=O)(=O)c2ccccc2)cc1 in the assay. active

Query: recorded result category for CCOc1ccc(/C=N\NC(=O)c2ccco2)cc1OCC in this test inactive

For N#Cc1ccc(Oc2nc3ccccc3nc2-c2ccccc2)cc1 , what call appears in the results of this test? inactive

Recorded test call requested for COc1ccc(C2=NN(c3ccccc3)C[N+](c3ccc(C)cc3)=N2)cc1 active

I would be grateful if you could indicate the recorded call for CC1OC(C)C(O)C2=C1C(=O)c1ccccc1C2=O (stereo unspecified) . active

# fetch the recorded call for CC(=O)O[C@H]1CC[C@@]2(C)C(CC[C@]3(C)C2CC=C2[C@@H]4CC(C)(C)CC[C@]4(C(=O)NCCN(C)C)CCC23C)C1(C)C (stereo partly specified) here active

Could you check what this test reported for CC(C)COC(=O)c1ccc(NC(=O)CCl)cc1 ? inactive

Given CCCCCC/C=C1\CCC(CN2CCOCC2)C1=O (stereo unspecified) , state the outcome it received in this test. active

Just curious, what result did c1ccc([P+](Cc2ccc(C[P+](c3ccccc3)(c3ccccc3)c3ccccc3)s2)(c2ccccc2)c2ccccc2)cc1 get here? active

Just curious, what result did Nc1ccc(C(=O)N/N=C\c2cccc3ccccc23)cc1 get here? active

Hello, I am checking results. What call was entered for O=C1CCC(C(c2ccccc2)(c2ccccc2)c2ccccc2)CC1=O (stereo unspecified) ? inactive

Please share the test call associated with OCCc1ccc(-n2cnc3c(Nc4ccc(Cl)cc4)ncnc32)cc1 . inactive

Tell me the assay call for Oc1ccc(O)c2c(O)c3ccccc3c(O)c12 please. active

Query: recorded result category for O=C(O)c1ccccc1-c1ccccc1C(=O)Nc1ccc2c(c1)Cc1cc(F)ccc1-2 in this test active

Which outcome did this test record for the compound CCC(C)(C[NH-])C[NH-].[Cl][Pt+2][Cl] ? inactive

For CCCCCCCn1ccnc1NCCCCCCCCCCNc1nccn1CCCCCCC , which call appears in the assay record? active

Recorded test outcome, item O=C(NC(Cc1ccc(O)cc1)C(=O)NC(Cc1ccccc1)C(=O)O)OCc1ccccc1 (stereo not drawn) (Cbz-Tyr-Phe-OH; configuration not given here) inactive

Could you kindly confirm the outcome this assay logged for O=[N+]([O-])C1C2C=CC(C2)[C@H]1c1ccc(Cl)cc1Cl (stereo partly specified) ? active

Per the assay record, what outcome was assigned to NC(=Nc1ccccc1)SCc1ccc([N+](=O)[O-])cc1 ? inactive

Please state the recorded outcome for this compound: O=C(NCc1ccc(F)cc1)c1ccc(C(=O)NCc2ccc(F)cc2)cc1 inactive

Short answer needed: outcome of this test for O=C(Nc1ccc(F)cc1)N1CCCCC1 ? inactive

I would be grateful if you could indicate the recorded call for CC(=O)Nc1ccccc1C(O)(c1ccccc1)c1ccccc1 . inactive

Assay outcome for Cc1ccc(-c2c(C#N)c(S)n(NS(=O)(=O)c3ccccc3)c(=O)c2C#N)cc1 : what was it? active

Status in this test for O=c1c2ccccc2c2ccccc2n1O ? active

Fill in: this test's call for CC(C)Cc1ccc(C(C)/C=C2\CCC(CN3CCCCC3)C2=O)cc1 (stereo unspecified) is ___ active

Assay result, entry CCCCCCCCCCCCCC(=O)OCCCC1CCCO1 (stereo unspecified) — outcome? inactive

What did the test return for CCC[n+]1ccnc2ccccc21 ? inactive

// return assay outcome for CN(C)c1ccc(/C=C(\NC(=O)c2ccccc2)c2nc3ccccc3s2)cc1 active

Which outcome was entered for the compound Cc1cccc2c(CC(=O)O)cccc12 in this test? active

Given CS(=O)(=O)OCCN(CCOS(C)(=O)=O)c1ccc(C=Nc2cccc(Br)c2)c(Cl)c1 , state the outcome it received in this test. inactive
